All figures here come from the supplement of paper PMC9233669.

Test system: biotinyl-Phe-oxazolone
assay overview: self-aminoacylation, catalytic enhancement (BFO) (fold over background); higher = more active; k-Seq, kA / k0A0; sequences stand for … in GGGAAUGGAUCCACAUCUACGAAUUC…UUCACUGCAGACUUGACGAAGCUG
This sample holds only a part of the variants without activity.
measure: self-aminoacylation
Response field accepts a number only; no unit should be typed.

Name the recorded self-aminoacylation of the sequence listed here: AAGCUUGAUAAUAGUCGCAAG [Fam3.1 aminoacylation ribozyme variant]
2.72

Name the recorded self-aminoacylation of the sequence listed here: CUACUUCAAACAGUUGGUCUG [Fam1A.1 aminoacylation ribozyme variant]
0.982

Name the recorded self-aminoacylation of the sequence listed here: GUUACCCUGGUCAUCGCGUGA [Fam2.1 aminoacylation ribozyme variant]
212

Name the recorded self-aminoacylation of the sequence listed here: AUUCACAUAGGUCAUCAGGUG [Fam2.2 aminoacylation ribozyme variant]
1.62

Name the recorded self-aminoacylation of the sequence listed here: AUUCCCCUGGACAUCGAGUGA [Fam2.1 aminoacylation ribozyme variant]
35.4

Name the recorded self-aminoacylation of the sequence listed here: AAGUUUGGUAUUAGUCGCAAG [Fam3.1 aminoacylation ribozyme variant]
2.44

Name the recorded self-aminoacylation of the sequence listed here: CCACACUUCACGCGAUCGGUC [Fam1B.1 aminoacylation ribozyme variant]
6.79

Name the recorded self-aminoacylation of the sequence listed here: AAGUUUGCUGUUAGUCGCAAG [Fam3.1 aminoacylation ribozyme variant]
0.937

Name the recorded self-aminoacylation of the sequence listed here: AAGUUUGCUAAUCGUCGCACG [Fam3.1 aminoacylation ribozyme variant]
0.692

* * *

Test system: biotinyl-Ile-oxazolone
assay overview: self-aminoacylation, catalytic enhancement (BIO) (fold over background); higher = more active; k-Seq, kA / k0A0; sequences stand for … in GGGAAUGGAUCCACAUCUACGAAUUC…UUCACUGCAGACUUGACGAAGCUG
This sample holds only a part of the variants without activity.
Binning rule for recorded self-aminoacylation: lower bin (below 0.9), middle bin (0.9 to below 3), upper bin (3 or more)

Record CCACACUUAAAGCAAUCGGUG [Fam1B.1 aminoacylation ribozyme variant] — which class?
middle bin

Record GUACUUCAAACAAUCGCUCUG [Fam1A.1 aminoacylation ribozyme variant] — which class?
middle bin

Record UCACACUUGAAGCAAUCGGUC [Fam1B.1 aminoacylation ribozyme variant] — which class?
lower bin

Record AUUCCCCUGGUCAUUGAGUGA [Fam2.1 aminoacylation ribozyme variant] — which class?
upper bin

Record UCACACUUCAAUCAAUCGGUC [Fam1B.1 aminoacylation ribozyme variant] — which class?
middle bin

Record CUACUACAAACAAUCGUUCUG [Fam1A.1 aminoacylation ribozyme variant] — which class?
lower bin

Record AUUCACCAAGGUCAACGGGUG [Fam2.2 aminoacylation ribozyme variant] — which class?
upper bin

Record ACUCACCUAGGACAUCGGGUG [Fam2.2 aminoacylation ribozyme variant] — which class?
upper bin

Record AUUCUUCUAGGUCAUCGGGUG [Fam2.2 aminoacylation ribozyme variant] — which class?
upper bin

Record CUACUUCAAAAAAUCGGCCUG [Fam1A.1 aminoacylation ribozyme variant] — which class?
middle bin

Record AUUACUGUGGUCAUCGAGUGA [Fam2.1 aminoacylation ribozyme variant] — which class?
middle bin

Record AUUACCCGGGUCAUCGAGUAA [Fam2.1 aminoacylation ribozyme variant] — which class?
middle bin

Record CUACUUCAAAGUAUCGGUCUG [Fam1A.1 aminoacylation ribozyme variant] — which class?
middle bin

Record AAGUUUGCUAAUGGUCGGAAG [Fam3.1 aminoacylation ribozyme variant] — which class?
lower bin

Record CUACUUCAAACAAUCGACCUG [Fam1A.1 aminoacylation ribozyme variant] — which class?
lower bin

Record AUUACCCUUGUCAUAGAGUGA [Fam2.1 aminoacylation ribozyme variant] — which class?
upper bin

Record CUAGUUCAAAAAAUCGGUCUG [Fam1A.1 aminoacylation ribozyme variant] — which class?
middle bin
